Target: Cytochrome P450 2D6 (Homo sapiens) (UniProt P10635)
Sequence (P10635 whole entry, looked up): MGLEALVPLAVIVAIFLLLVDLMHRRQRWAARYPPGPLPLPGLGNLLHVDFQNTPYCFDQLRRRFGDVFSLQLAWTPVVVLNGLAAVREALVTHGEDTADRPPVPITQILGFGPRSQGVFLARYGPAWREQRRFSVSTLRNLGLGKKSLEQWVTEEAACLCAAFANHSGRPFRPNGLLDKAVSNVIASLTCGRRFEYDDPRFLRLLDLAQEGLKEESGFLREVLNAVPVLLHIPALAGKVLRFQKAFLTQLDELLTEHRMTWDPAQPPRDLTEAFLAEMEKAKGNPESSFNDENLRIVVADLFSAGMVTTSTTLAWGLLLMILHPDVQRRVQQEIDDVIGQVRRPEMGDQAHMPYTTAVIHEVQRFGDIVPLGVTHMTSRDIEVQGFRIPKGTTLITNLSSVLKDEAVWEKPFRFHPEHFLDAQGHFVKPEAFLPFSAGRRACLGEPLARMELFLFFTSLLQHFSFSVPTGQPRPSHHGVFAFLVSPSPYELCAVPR
Assay: Cytochrome P450 family 2 subfamily D member 6 (CYP2D6) small molecule antagonists: luciferase biochemical (cell-free) qHTS assay (AID 1645840); further: nearly all actives have a fitted effect of over 55% in size; further: potency means the concentration at half of the fitted maximal effect
Conditions: P450-Glo CYP2D6 enzyme, luciferin luminescence, 1 h; series mostly up to 57.4 µM
Excerpt: National Center for Advancing Translational Sciences [NCATS] Assay Overview: Cytochrome P450 (CYP) enzymes are membrane-bound hemeproteins that play a key role in metabolism of drugs and xenobiotics. Assaying the effect of chemicals on CYP isozymes is useful to minimize the adverse drug reactions and toxicities in drug development process. […] The luciferin products formed are detected with a luciferin detection reagent, and the amount of light produced is proportional to CYP activity. […]
Inconclusive results are not listed. The source made the active and inactive calls. The call rests on the fitted dose curve; in most records, active means well fitted inhibition curve with a large enough effect in the repeat runs; inconclusive means weak or mixed curves; inactive means flat fitted curve, though single readings scatter.
parameter-measured: Potency

[
  {
    "molecule": "CNC(=O)c1ccc(CSc2nc3ccncc3n2Cc2ccc(C)cc2)cc1",
    "Potency": "13.5 µM (active)"
  },
  {
    "molecule": "Cc1nc2c3ccccc3nc(NNC(=O)CCC(=O)N3CCN(c4ccc(F)cc4)CC3)n2n1",
    "Potency": "inactive"
  },
  {
    "molecule": "CN1C(=O)NC(Cc2c[nH]c3c(Cl)cccc23)C1=O (stereo not given)",
    "Potency": "inactive"
  },
  {
    "molecule": "Cc1oc(-c2ccccc2F)nc1Cn1c(SCc2ccccc2F)nc2ccncc21",
    "Potency": "12 µM (active)"
  },
  {
    "molecule": "COc1ccccc1OCCn1c(NC(=O)c2ccccc2Cl)nc2ccccc21",
    "Potency": "inactive"
  },
  {
    "molecule": "O=C(CSc1nnc(-c2cccc(F)c2)c(-c2cccc(F)c2)n1)NC1CCCCC1",
    "Potency": "inactive"
  },
  {
    "molecule": "Cc1cc(NC(=O)C2CCN(S(=O)(=O)c3ccc4[nH]c(=O)oc4c3)CC2)ccc1Br",
    "Potency": "16.9 µM (active)"
  },
  {
    "molecule": "CCc1ccc(CN(Cc2ccco2)C(=O)COc2ccccc2Cl)cc1",
    "Potency": "7.56 µM (active)"
  },
  {
    "molecule": "Cc1cc(O)c(Cl)c(C)c1Cl",
    "Potency": "inactive"
  }
]

Kindly review the next molecule as well.
Prompt: State, for Cytochrome P450 2D6 (Homo sapiens) (UniProt P10635), measured Potency of the molecule listed here: CN[C@@H](C)C(=O)N[C@H](C(=O)N1CCC[C@H]1c1nc(C(=O)c2ccc(F)cc2)cs1)C1CCCCC1
Response: inactive
